- test-protocol: isobaric coefficient of expansion
- run-parameters: 318.15 K; 5000 kPa; Liquid; DSC
Reported isobaric coefficient of expansion is given for each of the following compounds.

Record excerpt, results attached:
1) C[N+](=O)[O-] [nitromethane]    0.00126 1/K
2) CCC[N+](=O)[O-] [1-nitropropane]    0.00113 1/K
3) O=[N+]([O-])c1ccccc1 [nitrobenzene]    0.000832 1/K
4) N#Cc1ccccc1 [benzonitrile]    0.000857 1/K
5) CC[N+](=O)[O-] [nitroethane]    0.00119 1/K

The recorded isobaric coefficient of expansion for CCC#N [propanenitrile] is 0.00135 1/K

----------
- test-protocol: isobaric coefficient of expansion
- run-parameters: 298.15 K; 15000 kPa; Liquid; DSC
measured-parameter: isobaric coefficient of expansion

Record excerpt, results attached:
1. CC[N+](=O)[O-] [nitroethane]    0.0011 1/K
2. N#Cc1ccccc1 [benzonitrile]    0.000825 1/K
3. O=[N+]([O-])c1ccccc1 [nitrobenzene]    0.0008 1/K

The recorded isobaric coefficient of expansion for CCC[N+](=O)[O-] [1-nitropropane] is 0.00103 1/K

The recorded isobaric coefficient of expansion for C[N+](=O)[O-] [nitromethane] is 0.00116 1/K

The recorded isobaric coefficient of expansion for CCC#N [propanenitrile] is 0.0012 1/K

----------
- test-protocol: isobaric coefficient of expansion
- run-parameters: 318.15 K; 55000 kPa; Liquid; DSC
Reported isobaric coefficient of expansion is given for each of the following compounds.

1) O=[N+]([O-])c1ccccc1    0.00071 1/K
2) CCC[N+](=O)[O-]    0.00088 1/K
3) CCC#N    0.001 1/K
4) CC[N+](=O)[O-]    0.000945 1/K

Moving on to the next compound.
The recorded isobaric coefficient of expansion for C[N+](=O)[O-] is 0.00101 1/K

----------
- test-protocol: isobaric coefficient of expansion
- run-parameters: 348.15 K; 25000 kPa; Liquid; DSC
measured-parameter: isobaric coefficient of expansion

Record excerpt, results attached:
1) CCC#N [propanenitrile]    0.00122 1/K
2) O=[N+]([O-])c1ccccc1 [nitrobenzene]    0.00078 1/K
3) C[N+](=O)[O-] [nitromethane]    0.00119 1/K
4) N#Cc1ccccc1 [benzonitrile]    0.000802 1/K
5) CCC[N+](=O)[O-] [1-nitropropane]    0.00103 1/K

Moving on to the next compound.
The recorded isobaric coefficient of expansion for CC[N+](=O)[O-] [nitroethane] is 0.0011 1/K

----------
- test-protocol: isobaric coefficient of expansion
- run-parameters: 348.15 K; 55000 kPa; Liquid; DSC
measured-parameter: isobaric coefficient of expansion

Record excerpt, results attached:
1. C[N+](=O)[O-]    0.00102 1/K
2. CCC#N    0.00101 1/K
3. CCC[N+](=O)[O-]    0.000879 1/K
4. O=[N+]([O-])c1ccccc1    0.000701 1/K

Moving on to the next molecule.
The recorded isobaric coefficient of expansion for CC[N+](=O)[O-] is 0.000947 1/K

----------
- test-protocol: isobaric coefficient of expansion
- run-parameters: 308.15 K; 15000 kPa; Liquid; DSC
measured-parameter: isobaric coefficient of expansion

The recorded isobaric coefficient of expansion for CC[N+](=O)[O-] is 0.00111 1/K

The recorded isobaric coefficient of expansion for O=[N+]([O-])c1ccccc1 is 0.000799 1/K

The recorded isobaric coefficient of expansion for CCC[N+](=O)[O-] is 0.00104 1/K

The recorded isobaric coefficient of expansion for N#Cc1ccccc1 is 0.000827 1/K

The recorded isobaric coefficient of expansion for C[N+](=O)[O-] is 0.00118 1/K

The recorded isobaric coefficient of expansion for CCC#N is 0.00121 1/K

----------
- test-protocol: isobaric coefficient of expansion
- run-parameters: 348.15 K; 15000 kPa; Liquid; DSC
Reported isobaric coefficient of expansion is given for each of the following compounds.

Record excerpt, results attached:
1) CCC[N+](=O)[O-]    0.00111 1/K
2) N#Cc1ccccc1    0.000832 1/K
3) CC[N+](=O)[O-]    0.00117 1/K

The recorded isobaric coefficient of expansion for CCC#N is 0.00133 1/K

The recorded isobaric coefficient of expansion for C[N+](=O)[O-] is 0.00127 1/K

The recorded isobaric coefficient of expansion for O=[N+]([O-])c1ccccc1 is 0.000811 1/K

----------
Reported isobaric coefficient of expansion is given for each of the following molecules.
- test-protocol: isobaric coefficient of expansion
- run-parameters: 318.15 K; 35000 kPa; Liquid; DSC

Record excerpt, results attached:
1) C[N+](=O)[O-] [nitromethane]    0.00109 1/K
2) CCC#N [propanenitrile]    0.0011 1/K
3) CC[N+](=O)[O-] [nitroethane]    0.00102 1/K
4) O=[N+]([O-])c1ccccc1 [nitrobenzene]    0.000749 1/K
5) CCC[N+](=O)[O-] [1-nitropropane]    0.000952 1/K

Moving on to the next molecule.
The recorded isobaric coefficient of expansion for N#Cc1ccccc1 [benzonitrile] is 0.000773 1/K

----------
- test-protocol: isobaric coefficient of expansion
- run-parameters: 348.15 K; 45000 kPa; Liquid; DSC
measured-parameter: isobaric coefficient of expansion

Record excerpt, results attached:
1. C[N+](=O)[O-]    0.00106 1/K
2. O=[N+]([O-])c1ccccc1    0.000721 1/K
3. N#Cc1ccccc1    0.000749 1/K

The recorded isobaric coefficient of expansion for CCC[N+](=O)[O-] is 0.000915 1/K

The recorded isobaric coefficient of expansion for CCC#N is 0.00105 1/K

The recorded isobaric coefficient of expansion for CC[N+](=O)[O-] is 0.000989 1/K

----------
- test-protocol: isobaric coefficient of expansion
- run-parameters: 338.15 K; 10000 kPa; Liquid; DSC
measured-parameter: isobaric coefficient of expansion

Record excerpt, results attached:
1. N#Cc1ccccc1    0.000843 1/K
2. CCC#N    0.00136 1/K
3. C[N+](=O)[O-]    0.00128 1/K
4. O=[N+]([O-])c1ccccc1    0.000828 1/K
5. CC[N+](=O)[O-]    0.00119 1/K

The recorded isobaric coefficient of expansion for CCC[N+](=O)[O-] is 0.00113 1/K

----------
- test-protocol: isobaric coefficient of expansion
- run-parameters: 288.15 K; 50000 kPa; Liquid; DSC
measured-parameter: isobaric coefficient of expansion

Record excerpt, results attached:
1. CCC[N+](=O)[O-]    0.000887 1/K
2. C[N+](=O)[O-]    0.00101 1/K
3. N#Cc1ccccc1    0.000754 1/K
4. CC[N+](=O)[O-]    0.00096 1/K
5. CCC#N    0.00101 1/K

The recorded isobaric coefficient of expansion for O=[N+]([O-])c1ccccc1 is 0.000725 1/K

----------
- test-protocol: isobaric coefficient of expansion
- run-parameters: 278.15 K; 20000 kPa; Liquid; DSC
Reported isobaric coefficient of expansion is given for each of the following molecules.

Record excerpt, results attached:
1. CCC[N+](=O)[O-]    0.000982 1/K
2. C[N+](=O)[O-]    0.0011 1/K
3. N#Cc1ccccc1    0.000812 1/K
4. CC[N+](=O)[O-]    0.00106 1/K

The recorded isobaric coefficient of expansion for CCC#N is 0.00114 1/K

----------
Reported isobaric coefficient of expansion is given for each of the following compounds.
- test-protocol: isobaric coefficient of expansion
- run-parameters: 328.15 K; 10000 kPa; Liquid; DSC

1) O=[N+]([O-])c1ccccc1 [nitrobenzene]    0.000821 1/K

The recorded isobaric coefficient of expansion for C[N+](=O)[O-] [nitromethane] is 0.00126 1/K

The recorded isobaric coefficient of expansion for CCC#N [propanenitrile] is 0.00133 1/K

The recorded isobaric coefficient of expansion for CC[N+](=O)[O-] [nitroethane] is 0.00116 1/K

The recorded isobaric coefficient of expansion for CCC[N+](=O)[O-] [1-nitropropane] is 0.00111 1/K

The recorded isobaric coefficient of expansion for N#Cc1ccccc1 [benzonitrile] is 0.000837 1/K

----------
- test-protocol: isobaric coefficient of expansion
- run-parameters: 278.15 K; 5000 kPa; Liquid; DSC
Reported isobaric coefficient of expansion is given for each of the following compounds.

Record excerpt, results attached:
1) CCC#N    0.00122 1/K
2) C[N+](=O)[O-]    0.00116 1/K

The recorded isobaric coefficient of expansion for CCC[N+](=O)[O-] is 0.00105 1/K

The recorded isobaric coefficient of expansion for CC[N+](=O)[O-] is 0.00113 1/K

The recorded isobaric coefficient of expansion for N#Cc1ccccc1 is 0.000841 1/K
